- protocol details: Anticancer human tumor 997537-175-T-J1-PDC patient-derived colon adenocarcinoma cell line growth inhibition [POLQ]; active = viability on the fitted dose curve at most 10% of control; inactive = the rest;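 also: luminescence signal used as a surrogate for viable cells; spheroids exposed to drugs for seven days before readout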
- assay context: 997537-175-T-J1-PDC complex spheroid viability, combination with POLQ inhibitors; second compound 0.316 µM; first compound 1 µM
Labels: 1 (yes) = active, 0 (no) = inactive

[
  {
    "compound": "COc1cc(C2c3cc4c(cc3C(OC3OC5COC(C)OC5C(O)C3O)C3COC(=O)C23)OCO4)cc(OC)c1O (stereo not given) + Cc1cccc(N(C)C(=O)C2C(O)CCN2c2nc(C)cc(C(F)(F)F)c2C#N)c1",
    "category label": "0 (no)"
  },
  {
    "compound": "COc1cccc(OCCCN)c1-c1cc(Nc2cnc(C#N)cn2)n[nH]1 + Cc1cccc(N(C)C(=O)C2C(O)CCN2c2nc(C)cc(C(F)(F)F)c2C#N)c1",
    "category label": "0 (no)"
  },
  {
    "compound": "CC1COCCN1c1cc(C2(S(C)(=N)=O)CC2)nc(-c2ccnc3[nH]ccc23)n1 (stereo not given) + COC1C(OC(N)=O)C(O)C(Oc2ccc3c(O)c(NC(=O)c4ccc(O)c(CC=C(C)C)c4)c(=O)oc3c2C)OC1(C)C",
    "category label": "0 (no)"
  },
  {
    "compound": "CC1COCCN1c1cc(-c2ccnn2C)c2ccnc(-c3ccn[nH]3)c2n1 (stereo not given) + Nc1ccc(C#CCN(C(=O)Cc2ncc(C(F)(F)F)cc2C(F)(F)F)c2ccc(F)cc2)nn1",
    "category label": "0 (no)"
  },
  {
    "compound": "O=C(Nc1ccc(O)c(NS(=O)(=O)c2ccc(F)cc2)c1)c1ccc(-c2ccccc2)cc1 + Cc1cccc(N(C)C(=O)C2C(O)CCN2c2nc(C)cc(C(F)(F)F)c2C#N)c1",
    "category label": "0 (no)"
  },
  {
    "compound": "CCc1c2c(nc3ccc(O)cc13)-c1cc3c(c(=O)n1C2)COC(=O)[C@]3(O)CC + COC1C(OC(N)=O)C(O)C(Oc2ccc3c(O)c(NC(=O)c4ccc(O)c(CC=C(C)C)c4)c(=O)oc3c2C)OC1(C)C",
    "category label": "1 (yes)"
  },
  {
    "compound": "C=CCn1c(=O)c2cnc(Nc3ccc(N4CCN(C)CC4)cc3)nc2n1-c1cccc(C(C)(C)O)n1 + Cc1cccc(N(C)C(=O)C2C(O)CCN2c2nc(C)cc(C(F)(F)F)c2C#N)c1",
    "category label": "0 (no)"
  },
  {
    "compound": "C=CCn1c(=O)c2cnc(Nc3ccc(N4CCN(C)CC4)cc3)nc2n1-c1cccc(C(C)(C)O)n1 + COC1C(OC(N)=O)C(O)C(Oc2ccc3c(O)c(NC(=O)c4ccc(O)c(CC=C(C)C)c4)c(=O)oc3c2C)OC1(C)C",
    "category label": "0 (no)"
  },
  {
    "compound": "C=CC(=O)N1CCN(c2nc(=O)n(-c3c(C)ccnc3C(C)C)c3nc(-c4c(O)cccc4F)c(F)cc23)C(C)C1 (stereo not given) + Nc1ccc(C#CCN(C(=O)Cc2ncc(C(F)(F)F)cc2C(F)(F)F)c2ccc(F)cc2)nn1",
    "category label": "0 (no)"
  },
  {
    "compound": "C=CC(=O)N1CCN(c2nc(=O)n(-c3c(C)ccnc3C(C)C)c3nc(-c4c(O)cccc4F)c(F)cc23)C(C)C1 (stereo not given) + COC1C(OC(N)=O)C(O)C(Oc2ccc3c(O)c(NC(=O)c4ccc(O)c(CC=C(C)C)c4)c(=O)oc3c2C)OC1(C)C",
    "category label": "0 (no)"
  }
]
